# System: HeLa
# Procedure text: Antiproliferative activity against human HeLa cells assessed as growth inhibition measured after 48 hrs by sulforhodamine B assay
# Format: functional
// boundary case: GI50 equal to 500 nM maps to false; strictly smaller maps to true

In [3]: df
Out[3]:
                                 mol_smiles  class_assignment
0  C[C@]12CC=CC[C@@H]1CC[C@H]1[C@@H]3[C@@H]4O[C@@H]4C(=O)[C@@]3(C)CC[C@@H]12             false
1  C[C@]12C[C@H]3O[C@H]3C[C@@H]1CC[C@H]1[C@@H]3[C@@H]4O[C@@H]4C(=O)[C@@]3(C)CC[C@@H]12             false
2  C[C@]12CC=CC[C@@H]1C(=O)C[C@@H]1[C@@H]2CC[C@]2(C)C(=O)C=C[C@@H]12             false
3  C[C@]12CCC(=O)C[C@@H]1CC[C@H]1[C@@H]3[C@@H]4O[C@@H]4C(=O)[C@@]3(C)CC[C@@H]12             false
4  C[C@]12C[C@H]3O[C@H]3C[C@@H]1CC[C@@H]1[C@@H]2CC[C@]2(C)C(=O)C=C[C@@H]12              true
5  C[C@]12CC=CC[C@@H]1C(=O)C[C@H]1[C@@H]3[C@@H]4O[C@@H]4C(=O)[C@@]3(C)CC[C@@H]12             false
